# TARGET_UNDER_TEST: ΔF508-CFTR (Homo sapiens, UniProt P13569, DEL508-508)
# Construct: host or cells: CFBE41o-, doxycycline-inducible
# Sequence (P13569 with tags, fused parts or gaps DEL508-508): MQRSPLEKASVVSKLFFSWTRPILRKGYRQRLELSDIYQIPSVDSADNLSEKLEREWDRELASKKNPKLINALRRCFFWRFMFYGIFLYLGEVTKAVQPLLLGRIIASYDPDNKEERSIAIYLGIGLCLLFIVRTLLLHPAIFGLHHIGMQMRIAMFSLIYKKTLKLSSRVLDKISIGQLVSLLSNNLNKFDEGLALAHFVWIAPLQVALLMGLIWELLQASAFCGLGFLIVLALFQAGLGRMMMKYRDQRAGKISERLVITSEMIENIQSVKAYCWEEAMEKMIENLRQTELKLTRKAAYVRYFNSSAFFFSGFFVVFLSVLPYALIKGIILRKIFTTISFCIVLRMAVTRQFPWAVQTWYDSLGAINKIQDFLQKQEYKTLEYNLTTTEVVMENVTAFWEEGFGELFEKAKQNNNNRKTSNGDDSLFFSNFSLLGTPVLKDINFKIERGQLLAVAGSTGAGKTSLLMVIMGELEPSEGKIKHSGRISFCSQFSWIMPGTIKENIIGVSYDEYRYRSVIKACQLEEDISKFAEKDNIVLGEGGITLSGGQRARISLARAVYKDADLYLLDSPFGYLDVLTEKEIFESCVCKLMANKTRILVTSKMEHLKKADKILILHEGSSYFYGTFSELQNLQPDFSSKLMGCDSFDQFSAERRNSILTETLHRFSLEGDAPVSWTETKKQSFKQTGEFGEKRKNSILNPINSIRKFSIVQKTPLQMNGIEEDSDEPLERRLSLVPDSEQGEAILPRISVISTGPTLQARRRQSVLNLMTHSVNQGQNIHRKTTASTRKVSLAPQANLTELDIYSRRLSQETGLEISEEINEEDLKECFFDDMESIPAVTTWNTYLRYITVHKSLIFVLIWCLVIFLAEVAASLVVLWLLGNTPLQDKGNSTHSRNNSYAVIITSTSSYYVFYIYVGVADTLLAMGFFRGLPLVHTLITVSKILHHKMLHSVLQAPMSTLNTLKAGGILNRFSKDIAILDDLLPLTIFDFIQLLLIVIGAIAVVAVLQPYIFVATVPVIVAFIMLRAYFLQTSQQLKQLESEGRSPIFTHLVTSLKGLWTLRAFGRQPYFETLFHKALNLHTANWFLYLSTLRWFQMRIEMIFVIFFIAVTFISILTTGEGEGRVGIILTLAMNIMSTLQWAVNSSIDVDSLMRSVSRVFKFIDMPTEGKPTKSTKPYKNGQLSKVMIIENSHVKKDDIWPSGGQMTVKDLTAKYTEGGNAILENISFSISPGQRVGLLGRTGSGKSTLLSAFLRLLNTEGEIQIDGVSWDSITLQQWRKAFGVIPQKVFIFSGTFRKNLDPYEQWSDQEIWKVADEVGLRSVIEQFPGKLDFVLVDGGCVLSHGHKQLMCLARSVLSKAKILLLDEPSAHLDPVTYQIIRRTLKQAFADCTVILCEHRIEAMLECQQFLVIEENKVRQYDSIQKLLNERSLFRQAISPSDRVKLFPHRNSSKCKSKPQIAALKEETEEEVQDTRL
# EXPERIMENT: CFTR cell surface levels using HRP-tagged ΔF508-CFTR expressing CFBE cells, intrinsic corrector capacity
# Format: cell-based
# Design: concentration or dose not given beside the values
# CONDITION: HRP-tagged ΔF508-CFTR expressing CFBE41o- cells; compound alone (intrinsic corrector capacity); 20 hours at 33° C.
# Description: Measuring CFTR Cell Surface Levels Using HRP-Tagged ΔF508-CFTR Expressing CFBE Cells The HRP-tagged ΔF508-CFTR cell assay measures the expression of CFTR-ΔF508 at the plasma membrane. […] When HRP-tagged ΔF508-CFTR is present at the plasma membrane, the HRP enzyme activity can be measured. The amount of CFTR-ΔF508 that can be rescued to the plasma membrane is correlated with the amount of functional enzyme that can be measured. […]
ASSAY_READOUT: % Activation (%)
Answers are plain numbers, in %.

INSERT INTO measurements (smi, assay_readout, readout_number) VALUES
  ('COCC1CCN(c2cc(C(=O)NS(C)(=O)=O)nc3c2c(C(C)C)nn3-c2ccnc(N3CCOCC3)c2)CC1', '% Activation', 234.6),
  ('CN(C)S(=O)(=O)NC(=O)c1cc(C2CCN(C3CCC(F)(F)CC3)CC2)c2c(C3CCC3)nn(-c3ccc(F)cc3)c2n1', '% Activation', 135.7),
  ('CC(C)Oc1nn(C2CCCCC2)c2nc(C(=O)NS(C)(=O)=O)cc(-c3ccc(CN4CCN(C5CC5)CC4)cc3)c12', '% Activation', 214.3),
  ('Cc1cc(-n2nc(C3CCC3)c3c(N4CCC(N5CCOCC5)CC4)cc(C(=O)NS(C)(=O)=O)nc32)ccc1F', '% Activation', 301.4),
  ('CCOC(=O)N1CCN(c2cc(C(=O)NS(=O)(=O)CCOC)nc3c2c(C2CCC2)nn3-c2ccc(F)cc2)CC1', '% Activation', 458.5);

// for each molecule in input: emit % Activation
1. CC(C)c1nn(C2CCCCC2)c2nc(C(=O)NS(C)(=O)=O)cc(-c3ccc(N(C)C)nc3)c12
2. CN1CCN(C(=O)[C@@H]2CCCN2S(=O)(=O)NC(=O)c2cc(OCC3CCOCC3)c3c(C4CCC4)nn(-c4ccccc4)c3n2)CC1

1. 161.5
2. 27.44

* * *

# TARGET_UNDER_TEST: ΔF508-CFTR (Homo sapiens, UniProt P13569, DEL508-508)
# Construct: host or cells: CFBE41o-, doxycycline-inducible
# EXPERIMENT: CFTR cell surface levels using HRP-tagged ΔF508-CFTR expressing CFBE cells, in the presence of a co-corrector
# Type: cell-based
# CONDITION: HRP-tagged ΔF508-CFTR CFBE cells, in the presence of 3 μM co-corrector
# From the text: Measuring CFTR Cell Surface Levels Using HRP-Tagged ΔF508-CFTR Expressing CFBE Cells The HRP-tagged ΔF508-CFTR cell assay measures the expression of CFTR-ΔF508 at the plasma membrane. […] When HRP-tagged ΔF508-CFTR is present at the plasma membrane, the HRP enzyme activity can be measured. The amount of CFTR-ΔF508 that can be rescued to the plasma membrane is correlated with the amount of functional enzyme that can be measured. […]
ASSAY_READOUT: % Activation (%)
One number for each entry, in %.

INSERT INTO results (molecule, assay_readout, readout_number) VALUES
  ('CS(=O)(=O)NC(=O)c1cc(N2CCC(OC3CCCC3)CC2)c2c(C3CCC3)nn(-c3ccccc3)c2n1', '% Activation', 395.1),
  ('CS(=O)(=O)NC(=O)c1cc(OC[C@@H](F)C2CCOCC2)c2c(C3CCC3)nn(-c3ccccc3)c2n1', '% Activation', 304.63),
  ('COCC1CCN(c2cc(C(=O)NS(=O)(=O)N3CCC(C(=O)N4CCN(C)CC4)CC3)nc3c2c(C2CCC2)nn3-c2ccccc2)CC1', '% Activation', 324.03),
  ('CC(C)c1nn(C2CCCOC2)c2nc(C(=O)NS(C)(=O)=O)cc(-c3ccc(N4CCC(C#N)CC4)nc3)c12 (centres unmarked)', '% Activation', 271.43),
  ('CCS(=O)(=O)NC(=O)c1cc(N2CCC(N3CCOCC3)CC2)c2c(C3CCC3)nn(-c3ccccc3)c2n1', '% Activation', 563.64),
  ('COCCS(=O)(=O)NC(=O)c1cc(-c2ccc(N3CCOCC3)cc2)c2c(C)nn(C3CC3)c2n1', '% Activation', 257.55),
  ('COCCN(CCOC)c1ccc(-c2cc(C(=O)NS(C)(=O)=O)nc3c2c(C2CCC2)nn3-c2ccccc2)cn1', '% Activation', 331.65),
  ('CCCN(C)S(=O)(=O)NC(=O)c1cc(N2CCC(COC)CC2)c2c(C3CCC3)nn(-c3ccccc3)c2n1', '% Activation', 441.15),
  ('COC1CN(c2cccc(-n3nc(C(C)C)c4c(-c5ccc(N6CCOCC6)cc5)cc(C(=O)NS(C)(=O)=O)nc43)c2)C1', '% Activation', 572.93),
  ('CC(C)c1nn(-c2ccc(F)cc2)c2nc(C(=O)NS(C)(=O)=O)cc(N3CCC(C4CCN(C)CC4)CC3)c12', '% Activation', 590.6);

// for each molecule in input: emit % Activation
1. CC(C)c1nn(-c2cccc(N(C)C)c2)c2nc(C(=O)NS(C)(=O)=O)cc(-c3cnc(N(C)C4CCOCC4)nc3)c12
2. CC(C)c1nn(C2CCCOC2)c2nc(C(=O)NS(C)(=O)=O)cc(-c3ccc(N4CCOCC4)cc3)c12 (centres unmarked)

1. 619.45
2. 378.63

// for each molecule in input: emit % Activation
1. CC(c1ccc(-c2cc(C(=O)NS(=O)(=O)N(C)C)nc3c2c(C2CCC2)nn3C2CCCCC2)cc1)N1CCOCC1 (centres unmarked)
2. COCC1CCN(c2cc(C(=O)NS(=O)(=O)N(C)C)nc3c2c(C2CCC2)nn3-c2ccccc2)CC1

1. 336.1
2. 471.42

* * *

# TARGET_UNDER_TEST: ΔF508-CFTR (Homo sapiens, UniProt P13569, DEL508-508)
# Construct: host or cells: CFBE41o-, doxycycline-inducible
# EXPERIMENT: CFTR cell surface levels using HRP-tagged ΔF508-CFTR expressing CFBE cells, intrinsic corrector capacity
# Assay type: cell-based
# CONDITION: HRP-tagged ΔF508-CFTR expressing CFBE41o- cells; compound alone (intrinsic corrector capacity); 20 hours at 33° C.; read-out: EC50
ASSAY_READOUT: pEC50
Answers are plain numbers, as −log10 of the molar value.

Known results for molecules:
INSERT INTO results (smi, readout_number) VALUES
  ('COCC1CCN(c2cc(C(=O)NS(=O)(=O)c3cn[nH]c3)nc3c2c(C2CCC2)nn3-c2ccccc2)CC1', 6.17),
  ('CC(C)N1CCC(c2cc(C(=O)NS(C)(=O)=O)nc3c2c(C2CCC2)nn3-c2ccc(F)cc2)CC1', 5.48),
  ('CN(C)S(=O)(=O)NC(=O)c1cc(OCC2CCN(C3CCOCC3)CC2)c2c(C3CCC3)nn(-c3ccc(F)cc3)c2n1', 6.17);

From here, focus on the item given below.
Observed pEC50 on ΔF508-CFTR (Homo sapiens, UniProt P13569, DEL508-508), entry CS(=O)(=O)NC(=O)c1cc(CN2CCC(N3CCOCC3)CC2)c2c(C3CCC3)nn(-c3ccc(F)cc3)c2n1 , equals 5.86

* * *

# TARGET_UNDER_TEST: ΔF508-CFTR (Homo sapiens, UniProt P13569, DEL508-508)
# Construct: host or cells: CFBE41o-, doxycycline-inducible
# EXPERIMENT: CFTR cell surface levels using HRP-tagged ΔF508-CFTR expressing CFBE cells, in the presence of a co-corrector
# Type: cell-based
# CONDITION: HRP-tagged ΔF508-CFTR CFBE cells, in the presence of 3 μM co-corrector
ASSAY_READOUT: % Activation (%)
Numbers only, in %.

Known results for molecules:
INSERT INTO results (smi, readout_number) VALUES
  ('CC(C)Oc1nn(C2CCCCC2)c2nc(C(=O)NS(=O)(=O)N(C)C)cc(-c3ccc(CN4CCCCC4)cc3)c12', 332.5),
  ('COCCN(CCOC)c1ccc(-c2cc(C(=O)NS(C)(=O)=O)nc3c2c(C(C)C)nn3C2CCCCC2)cn1', 368.6),
  ('COCC1CCN(c2cc(C(=O)NS(=O)(=O)CCC(=O)N(C)C)nc3c2c(C2CCC2)nn3-c2ccccc2)CC1', 481.2),
  ('CN(C)S(=O)(=O)NC(=O)c1cc(N2CCC(N3CCC(C#N)CC3)CC2)c2c(C3CCC3)nn(-c3ccc(F)cc3)c2n1', 525.66),
  ('COCCN(C)c1ccc(-c2cc(C(=O)NS(C)(=O)=O)nc3c2c(C(C)C)nn3-c2cccc(N(C)C)c2)cc1', 535.93);

// for each molecule in input: emit % Activation
1. O=C(NS(=O)(=O)CC(F)(F)F)c1cc(N2CCC(N3CCOCC3)CC2)c2c(C3CCC3)nn(-c3ccc(F)cc3)c2n1
2. CC(C)c1nn(-c2ccccc2)c2nc(C(=O)NS(C)(=O)=O)cc(-c3ccc(N(C)C)cc3)c12

1. 569
2. 420.63

// for each molecule in input: emit % Activation
1. Cc1nn(-c2cccc(C(F)(F)F)c2)c2nc(C(=O)NS(C)(=O)=O)cc(-c3ccc(N(C)C)cc3)c12
2. CC(C)c1nn(-c2cccc(N3CC(C)(C)C3)c2)c2nc(C(=O)NS(C)(=O)=O)cc(-c3ccc(N4CCOCC4)cc3)c12
3. CCOc1nccc(-n2nc(C3CCC3)c3c(N4CCC(N5CCOCC5)CC4)cc(C(=O)NS(=O)(=O)N(C)C)nc32)n1
4. CC(C)c1nn(C2CCCC2)c2nc(C(=O)NS(C)(=O)=O)cc(-c3ccc(N(C)C)nc3)c12
5. CC(C)Oc1nn(C2CCCCC2)c2nc(C(=O)NS(C)(=O)=O)cc(-c3ccc(CN4CCC(N(C)C)CC4)cc3)c12
6. Cc1nn(-c2ccc(F)cc2F)c2nc(C(=O)NS(C)(=O)=O)cc(-c3ccc(N4CCOCC4)nc3)c12

1: 449.7; 2: 627; 3: 251.25; 4: 341.65; 5: 445.25; 6: 323.63

The measured % Activation associated with CC(C)N(C)S(=O)(=O)NC(=O)c1cc(N2CCC(N3CCOCC3)CC2)c2c(C3CCC3)nn(-c3ccc(F)cc3)c2n1 reads 436.4
